Molecular target: T1, recombinant human soluble gpNMB (recombinant human gpNMB-FLAG-His) (human, UniProt Q14956 23-498)
T1 sequence: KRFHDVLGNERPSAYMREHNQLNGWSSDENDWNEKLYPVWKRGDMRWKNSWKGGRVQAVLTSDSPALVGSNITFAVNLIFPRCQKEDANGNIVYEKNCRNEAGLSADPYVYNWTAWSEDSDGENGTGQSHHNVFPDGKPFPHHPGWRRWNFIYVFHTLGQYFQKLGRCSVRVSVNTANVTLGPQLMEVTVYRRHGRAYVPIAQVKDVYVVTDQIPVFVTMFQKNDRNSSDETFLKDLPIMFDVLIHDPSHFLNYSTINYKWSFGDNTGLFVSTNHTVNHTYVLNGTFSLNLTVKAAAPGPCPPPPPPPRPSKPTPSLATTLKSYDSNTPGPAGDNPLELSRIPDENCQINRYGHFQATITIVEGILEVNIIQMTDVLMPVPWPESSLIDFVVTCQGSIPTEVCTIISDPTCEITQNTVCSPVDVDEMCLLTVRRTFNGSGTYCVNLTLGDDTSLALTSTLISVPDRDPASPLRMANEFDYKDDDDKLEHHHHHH
Assay: antigen ELISA
log10 of EC50 values for the binders below.
metric: log10 of EC50 (log10 of the value in nM)

# binder, log10 of EC50
records = [
    ("hGPN18-2_H2L3 VL E39A (antibody, V domains shown) VH: QVQLVQSGPGLVQPTQTLTLTCSFSGFSLSTSVMGVGWIRQPSGKGLEWLADIWWDDDKDYNPSLKSRLTISKDTSKNQVVLTMTNMDTVDTATYYCARTYYSNYEYYGMDYWGQGTLVTVSS VL: DIVMTQSPDSLAVSLGERATINCRSSQTIILSNGNTYLAWYQQKPGQPPKLLIYKVSNRFSGVPDRFSGSGSGTDFTLTISSLQAEDVAVYYCFQGSHVPFTFGSGTKLEIKR", 1.93),
    ("hGPN18-2_H2L3 VL S32A (antibody, V domains shown) VH: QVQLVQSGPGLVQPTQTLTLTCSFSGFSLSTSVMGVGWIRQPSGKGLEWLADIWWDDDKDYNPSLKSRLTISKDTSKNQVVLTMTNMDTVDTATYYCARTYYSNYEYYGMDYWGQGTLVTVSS VL: DIVMTQSPDSLAVSLGERATINCRSSQTIILANGNTYLEWYQQKPGQPPKLLIYKVSNRFSGVPDRFSGSGSGTDFTLTISSLQAEDVAVYYCFQGSHVPFTFGSGTKLEIKR", 0.94),
    ("hGPN18-2_H2L3 VL S57A (antibody, V domains shown) VH: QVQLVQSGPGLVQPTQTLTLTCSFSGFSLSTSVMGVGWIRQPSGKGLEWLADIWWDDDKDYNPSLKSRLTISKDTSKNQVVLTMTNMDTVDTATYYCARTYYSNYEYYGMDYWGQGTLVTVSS VL: DIVMTQSPDSLAVSLGERATINCRSSQTIILSNGNTYLEWYQQKPGQPPKLLIYKVANRFSGVPDRFSGSGSGTDFTLTISSLQAEDVAVYYCFQGSHVPFTFGSGTKLEIKR", 0.50),
    ("hGPN18-2_H2L3 VL N33A (antibody, V domains shown) VH: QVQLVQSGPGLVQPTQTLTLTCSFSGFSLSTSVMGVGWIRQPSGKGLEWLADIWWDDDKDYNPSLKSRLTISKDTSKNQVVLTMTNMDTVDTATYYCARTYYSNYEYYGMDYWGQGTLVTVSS VL: DIVMTQSPDSLAVSLGERATINCRSSQTIILSAGNTYLEWYQQKPGQPPKLLIYKVSNRFSGVPDRFSGSGSGTDFTLTISSLQAEDVAVYYCFQGSHVPFTFGSGTKLEIKR", 0.56),
    ("hGPN18-2_H2L3 VL V56A (antibody, V domains shown) VH: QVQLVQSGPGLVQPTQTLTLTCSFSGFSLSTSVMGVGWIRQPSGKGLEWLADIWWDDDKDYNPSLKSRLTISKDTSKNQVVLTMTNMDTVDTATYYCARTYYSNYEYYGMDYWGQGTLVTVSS VL: DIVMTQSPDSLAVSLGERATINCRSSQTIILSNGNTYLEWYQQKPGQPPKLLIYKASNRFSGVPDRFSGSGSGTDFTLTISSLQAEDVAVYYCFQGSHVPFTFGSGTKLEIKR", 0.48),
]
